assay-metric: melting point

Consider the reported melting point for these molecules:
{"columns": ["molecule", "melting point"],
 "data": [
  ["COC(=O)COc1ccc(C=O)cc1OC", "91 to 93 °C"],
  ["Cc1ccc2c(c1)CC(Cl)c1cc(F)ccc1S2 (stereo not drawn)", "63 to 64 °C"]
]}

Please look at the following molecule next.
Lookup: Read the entry CC(=O)Nc1cccc(C(=O)c2[nH]c3cc(Cl)ccc3c2NC(C)=O)c1 and write its reported melting point.
Found: 225 to 228 °C

----------
assay-metric: melting point

The examples below pair each entry with its known result.
{"columns": ["molecule", "assay-metric", "measured-result"],
 "data": [
  ["CCC(COC)(OC)c1cc(F)cc(OCc2ccccc2)c1 (stereo not drawn)", "melting point", "61 to 62 °C"],
  ["CC(Cc1ccccc1C(=O)O)c1cccs1 (stereo not drawn)", "melting point", "66 to 68 °C"]
]}

Let us move to another entry and its melting point.
Lookup: Indicate its recorded melting point; the molecule in question is O=C(O)c1ccc(CN2CCC(CCCC(=O)c3ccc4c(c3)CCN(Cc3ccccc3)CC4)CC2)cc1
Found: 165 to 176 °C

----------
assay-metric: melting point

{"columns": ["compound", "measured-result"],
 "data": [
  ["CCOC(=O)C(=C1SC(=S)N(CC(=O)O)C1=O)c1csc(NC(=O)c2ccccc2)n1", "278 to 281 °C"],
  ["CN(C(=O)CCCOc1ccc([N+](=O)[O-])c(C=O)c1)C1CCCCC1", "98 to 100 °C"],
  ["CC(=O)N1CCc2ccc(Cl)cc2C(c2ccc([N+](=O)[O-])cc2)=N1", "227 to 229 °C"]
]}

Lookup: Tell us which melting point value is on record for CCOC(=O)C(Nc1ccc(C(=O)OC)cc1)C(=O)OCC
Found: 66 to 69 °C

Lookup: Quote melting point reported for N#Cc1cnc(Nc2ccc(OCCn3nccn3)cc2)nc1-c1ccccc1 please.
Found: 156 °C

Lookup: Return melting point (reported value) for this compound: CNC(=O)c1cccc(Nc2ncnc3[nH]cc(C(=O)c4cccc5ccccc45)c23)c1
Found: > 300 °C

Lookup: Recall and state the measured melting point for C#Cc1cccc(Oc2ccc3c(c2)C(=O)N(c2cccc(C#C)c2)C3=O)c1 .
Found: 150 to 160 °C

Lookup: Provide melting point value for the following compound: COCCNC(=O)c1cccc(-c2cccc3c2nc(Oc2cccc(C(F)(F)F)c2)n3C)c1
Found: 146 to 147 °C

Lookup: Look up and report measured melting point for this entry: Cc1nccn1-c1nc(-c2ccc(Cl)cc2)c(CCC(N)=O)o1
Found: 215 to 216 °C

Lookup: Indicate its recorded melting point; the compound in question is CCCn1c(=O)c2[nH]c(CC34CC5CC(CC(C5)C3)C4)nc2n(CCC)c1=O
Found: 178 to 180 °C

Lookup: Supply recorded melting point for CC(C)(C)c1ccc(-c2cc(Oc3ccc4[nH]ccc4c3)ncn2)cc1 here.
Found: 143 to 145 °C

Lookup: Could you please provide reported melting point for CSc1cnc2cc(C)sc2c1O ? Thanks!
Found: 222 to 225 °C

Lookup: Return melting point (reported value) for this compound: Cc1ccc(N2CCN(c3c(C)c(C)c4c(c3C)CC(C)(C)O4)CC2)cc1C
Found: 137 to 139 °C

Lookup: Please report the measured melting point for CS(=O)c1cn(-c2c(Cl)cc(C(F)(F)F)cc2Cl)nc1C=NO (centres undefined)
Found: 239 to 240 °C

----------
assay-metric: melting point

Solved cases below.
{"columns": ["molecule", "measured-result"],
 "data": [
  ["OCc1cnoc1-c1cc(Cl)ccc1Cl", "51 to 52 °C"],
  ["C=CCOc1cc(NCC)c(C(C)=O)cc1C(C)=O", "82 to 83 °C"]
]}

Now for a further molecule.
Lookup: For the molecule S=c1[nH]c(-c2ccc(Br)cc2)c(-c2ccc(Br)cc2)[nH]1 , give its reported melting point.
Found: 288 °C

----------
compounds and their reported melting point

# annotated cases, reported melting point shown
{"columns": ["compound", "melting point"],
 "data": [
  ["COc1nc(C)cnc1NS(=O)(=O)c1cccnc1-c1ccc(OCc2ccc(C(=O)O)cc2)cc1", "204 to 205 °C"],
  ["CC(C)(C)c1cc(-n2nc3ccc(Cl)cc3n2)c(O)c(C(C)(C)C)c1", "151 to 154 °C"],
  ["O=C(Nc1ccccc1-c1nc2cccnc2o1)c1ccccc1", "197 to 198 °C"]
]}

Lookup: Report melting point, nothing else, for this compound: CN1c2ccccc2CC1c1ccccc1NC(=O)C(C)(C)C (stereo not given)
Found: 133 to 135 °C

Lookup: Give me measured melting point, please, for this compound: CO[C@]1(c2cccc(OCc3ccc4c(ccc(=O)n4C)c3)c2)CCOC[C@H]1O (racemic)
Found: 62 to 66 °C

----------
assay-metric: melting point

Consider the following illustrative entries.
{"columns": ["compound", "measured-result"],
 "data": [
  ["CCOC(=O)c1cccc(C(OC(=O)Nc2ccc3[nH]ncc3c2)[C@@H]2CCCCN2)c1 (some centres undefined)", "174 °C"],
  ["COCCNC(=O)c1ccnc(-c2cccc3cc(Cc4cccc(C(F)(F)F)c4)sc23)c1F", "94 to 95 °C"],
  ["CCc1cc(=O)c2c([nH]1)CCOC2", "238 to 240 °C"]
]}

Now consider the entry below.
Lookup: State its melting point: CC(C)n1nc(-c2cnc(N)nc2-c2ccccc2Br)ccc1=O
Found: 203 to 205 °C

----------
Entries and their measured melting point follow.

{"columns": ["molecule", "melting point"],
 "data": [
  ["COc1cc(C=O)cc(C#N)c1OC", "109 to 112 °C"],
  ["COC(=O)c1coc(CN2C(=O)C3(COc4cc5c(cc43)OCO5)c3ccccc32)n1 (centres undefined)", "183 to 185 °C"],
  ["CC(C)(C)CNc1nc(C#Cc2ccccc2)ccc1[N+](=O)[O-]", "90 to 92 °C"]
]}

Now consider the entry below.
Lookup: Using known records, supply melting point for CC(=O)N1CCC2(CC1)CN=C(c1cc3cccc(N(C)S(=O)(=O)c4cccs4)c3[nH]1)S2
Found: 216 to 218 °C

----------
This listing pairs molecules with measured melting point.

{"columns": ["structure-as-smiles", "melting point"],
 "data": [
  ["Cc1cc(NN)nc(-c2ccncc2)n1", "150 to 152 °C"]
]}

Lookup: Item CN1CCNC1=C(Cl)[N+](=O)[O-] : provide melting point
Found: 145 to 146 °C

Lookup: Specify reported melting point for the molecule shown: Cn1nc(C(=O)O)c(=O)n(-c2ccc(Cl)cc2)c1=O
Found: 234 to 236 °C

----------
Reported melting point values for a set of molecules

Examples with answers:
{"columns": ["molecule", "melting point"],
 "data": [
  ["COCOc1cc(C(C)(C)C)ccc1C(=O)O", "72 °C"],
  ["O=C(Nc1ccc(C(=O)N2CCCCc3sccc32)cc1)c1ccc(Cl)c(Cl)c1", "154 to 160 °C"]
]}

Lookup: Identify melting point associated with the molecule O=c1[nH]c2ccc(C(c3ccc(Cl)cc3)n3ccnc3-c3ccccc3)cc2c(Oc2cccc(Cl)c2)c1CO (stereo not drawn)
Found: 246 °C

----------
# melting point annotations

Examples with their reported melting point follow.
{"columns": ["compound", "assay-metric", "measured-result"],
 "data": [
  ["O=C(Cn1c(-c2ccc(Cl)cc2)nc2cccnc21)N1CCCCC1", "melting point", "176 to 178 °C"],
  ["CC(C)(C)c1cc(-n2nc3ccc(Sc4ccc5nn(-c6cc(C(C)(C)C)cc(C(C)(C)C)c6O)nc5c4)cc3n2)c(O)c(C(C)(C)C)c1", "melting point", "245 to 246 °C"],
  ["c1ccc(Nc2ccc(-c3ccc(N(c4ccccc4)c4ccccc4)cc3)cc2)cc1", "melting point", "168 °C"],
  ["CCCCCCC(=O)Nc1ccn(C2OC(CO)C(O)C2O)c(=O)n1 (stereo unspecified)", "melting point", "131 to 136 °C"],
  ["CCC(=O)NC1C=CC(CO)C1 (stereo unspecified)", "melting point", "67 to 68 °C"],
  ["COc1ccccc1CN1CCN(CCCOc2ccc3c(C)cc(=O)[nH]c3c2)CC1", "melting point", "151 to 152 °C"]
]}

Lookup: Identify melting point associated with the compound O=C(CN1C(=O)C(NC(=O)c2cc3ccccc3[nH]2)C(c2ccccc2)Sc2ccccc21)NCCc1ccccc1 (stereo unspecified)
Found: 157 to 163 °C

Lookup: Consider the compound CNc1scc(C)c1C(=O)c1ccccc1Cl and give its recorded melting point.
Found: 132 to 134 °C

Lookup: Please indicate melting point recorded for COc1nc(-n2ncc(C#N)c2N)c(C(F)(F)F)cc1Cl
Found: 163 to 165 °C

Lookup: Supply measured melting point of CCCCCC(CC(=O)Nc1cc(C(N)=O)ccc1C(C)(C)C)c1ccc(OCCC(N)S(C)(=O)=O)cc1OC (stereo unspecified) in your reply.
Found: 77 to 79 °C

Lookup: Provide measured melting point value, entry: NC(CC(=O)O)C1CC=CCC1 (stereo unspecified)
Found: 208 to 210 °C
